Kindly supply the reported growth values for the records listed here.
# Test system: U251 CNS
# Assay protocol: NCI-60 one-dose screen, 48 h (100 = growth as untreated, 0 = no growth, -100 = all killed)
# Test parameters: 10 µM unless noted
This is part of a sample that, as a whole, favours compounds with a hit. Of some 83,000 tested, about 20% had one in any assay. The source made the active and inactive calls. How the source made its calls: active means growth percent below 10; inactive means the rest.

Query :: API: value(readout= growth, system= U251 CNS, query= "Fc1cc(Nc2ccc3c(OCCCN4CCOCC4)cccc3n2)ccc1Cl" )
Result :: 14.4% (inactive)

Query :: // repeat for CNC(C)[C@H]1CCC2C3CC=C4C(=O)[C@@H](NC(=O)C=C(C)C)CC[C@]4(C)C3CC[C@@]21C (stereo partly drawn) and report
Result :: 18.2% (inactive)

Query :: // repeat for "COc1ccc(/C(C)=C(/c2ccc(OCCCN(C)C)cc2)c2ccc(OC(=O)c3ccccc3)cc2)cc1" and report
Result :: 68.2% (inactive)

Query :: // repeat for "COc1ccccc1N(C(C)=O)C1=C(Cl)C(=O)c2ccccc2C1=O" and report
Result :: 8.36% (active)

Query :: // repeat for O=C(NC(Cc1nnc2n(Cc3ccccc3)c(=O)c3c4c(sc3n12)CCCC4)c1ccccc1)c1ccccc1 (stereo not drawn) and report
Result :: 111% (inactive)

Query :: // repeat for "COc1ccc(-c2nn(-c3ccccc3)cc2/C=C/C(=O)NNC(=O)Nc2ccc(C)cc2)cc1" and report
Result :: 94.3% (inactive)

Query :: // repeat for "CN(C)CCN1C(=O)c2cccc3c(/C=C/CN4C(=O)c5cccc6cccc(c56)C4=O)ccc(c23)C1=O" and report
Result :: 90.8% (inactive)

Query :: // repeat for C=C1CC[C@@H]2[C@](C)(COC(C)=O)[C@H](OC(C)=O)CC[C@@]2(C)[C@@H]1CC(Nc1ccc(S(=O)(=O)NC(C)=O)cc1)C1=CCOC1=O (stereo partly drawn) and report
Result :: -65.5% (active)

Reference for the values: PubChem BioAssay (NCI)
